// provenance: patent US20080161232A1

tested system: human C5aR(CD88) (Homo sapiens, UniProt P21730)
Construct: expressed in transfected cells; host or cells: rat basophilic leukemia cells (RBL)
Sequence (P21730 whole entry): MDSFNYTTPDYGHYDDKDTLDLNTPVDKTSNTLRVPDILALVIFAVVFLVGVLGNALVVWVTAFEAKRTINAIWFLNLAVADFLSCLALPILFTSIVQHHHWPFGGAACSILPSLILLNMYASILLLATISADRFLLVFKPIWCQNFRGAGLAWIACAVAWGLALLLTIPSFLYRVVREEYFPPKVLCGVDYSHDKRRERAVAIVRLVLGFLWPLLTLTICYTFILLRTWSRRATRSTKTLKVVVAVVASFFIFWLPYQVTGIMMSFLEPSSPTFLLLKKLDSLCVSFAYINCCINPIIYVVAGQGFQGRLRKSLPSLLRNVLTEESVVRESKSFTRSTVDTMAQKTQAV
assay procedure: Determination of the IC50 value in an enzyme release assay (functional assay, antagonistic activity)
Type: cell-based
experimental conditions: antagonistic activity; IC50 group in enzyme release assay, RBL cells expressing human C5aR(CD88); read-out: activity (group)
pIC50: −log10 of the molar value. Positions of bridges follow the written chain, without caps; N, C: chain ends. Non-standard residues stand in square brackets, D forms with d. Residues, ends and D or L forms follow the SMILES beside them. Phe(4-F) = N[C@@H](Cc1ccc(F)cc1)C(=O)O; Hyp = O=C(O)[C@@H]1C[C@@H](O)CN1; d(hLeu) = CC(C)CC[C@@H](N)C(=O)O; dCha = N[C@H](CC1CCCCC1)C(=O)O; Nle = CCCC[C@H](N)C(=O)O; Orn = NCCC[C@H](N)C(=O)O
measurement type: pIC50

compound | tested system | measurement type | result
CCCC[C@@H]1NC(=O)[C@H](Cc2ccc(F)cc2)NC(=O)[C@@H](CCC(C)C)NC(=O)[C@@H]2C[C@@H](O)CN2C(=O)[C@@H](NC(=O)[C@@H](N)Cc2ccccc2)CCCCNC1=O [Compound 353, H-Phe-[Lys-Hyp-hle-Pff-Nle]] (H-FK[Hyp][d(hLeu)][Phe(4-F)][Nle]; lactam 2-C) | human C5aR(CD88) (Homo sapiens, UniProt P21730) | pIC50 | 6.70 to 7.30
CC(=O)N[C@@H](Cc1ccccc1)C(=O)N[C@H]1CCCNC(=O)[C@H](Cc2ccccc2)NC(=O)[C@H](Cc2c[nH]c3ccccc23)NC(=O)[C@@H](CC2CCCCC2)NC(=O)[C@@H]2C[C@@H](O)CN2C1=O [Compound 2, Ac-Phe-[Orn-Hyp-cha-Trp-Phe]] (Ac-F[Orn][Hyp][dCha]WF; lactam 2-C) | human C5aR(CD88) (Homo sapiens, UniProt P21730) | pIC50 | 7.30 to 7.70
